assay: Plasma pharmacokinetics of aficamten and metabolites after single and multiple oral doses, phase 1 study; type: in vivo, human; conditions: human, oral; SAD 10 mg, plasma; median (minimum, maximum); read-out: tmax
READOUT: Tmax (min)

# SMILES STRING, READOUT, VALUE UNITS, EXPERIMENTAL RESULT
rows = [
    ("CCc1nc(-c2ccc3c(c2)CC[C@H]3NC(=O)c2cnn(C)c2)no1", "Tmax", "min", 45),
]

###

Experiment: Urine pharmacokinetics of aficamten, MD cohort
Format: in vivo, human
Details: human, urine, oral, 5 mg, MD 5 mg, day 1, urine; mean ± SD; read-out: CLr (renal clearance) (converted)
Procedure: Blood samples (4 mL) for plasma PK analysis of aficamten and its metabolites (mono-hydroxylated derivative CK-3834282 and its diastereomer CK-3834283) were collected into K2EDTA tubes in the SAD cohorts at the following time points: at pre-dose and at 0.25, 0.5, 1, 1.5, 2, 2.5, 3, 4, 6, 8, 12, 16, 24, 36, 48, 72, 96, and 216 h post-dose. […] After collection, blood samples were centrifuged at 1700 g for 10 min at 4°C ± 2°C; plasma was aliquoted and stored at −80°C ± 20°C until analyzed. […]
READOUT: CL renal (mL/min)

# COMPOUND, READOUT, VALUE UNITS, EXPERIMENTAL RESULT
records = [
    ("CCc1nc(-c2ccc3c(c2)CC[C@H]3NC(=O)c2cnn(C)c2)no1 [aficamten]", "CL renal", "mL/min", 0.158),
]

###

test: Plasma pharmacokinetics of aficamten and metabolites after single and multiple oral doses, phase 1 study; type: in vivo, human; settings: human, plasma, oral, 10 mg, SAD 10 mg, plasma; mean ± SD; read-out: AUC0-t

# COMPOUND, AUC(0-t), ng·h/mL
records = [
    ("CCc1nc(-c2ccc3c(c2)CC[C@H]3NC(=O)c2cnn(C)c2)no1 [aficamten]", 2780),
]

###

test: Plasma pharmacokinetics of aficamten and metabolites after single and multiple oral doses, phase 1 study; type: in vivo, human; conditions: human, oral; SAD 10 mg, plasma; mean ± SD

# MOLECULE, AUC(0-inf) [ng·h/mL]
records = [
    ("CCc1nc(-c2ccc3c(c2)CC[C@H]3NC(=O)c2cnn(C)c2)no1 [aficamten]", 3340),
]

###

test: Plasma pharmacokinetics of aficamten and metabolites after single and multiple oral doses, phase 1 study; assay type: in vivo, human; conditions: human, plasma, oral, 5 mg, MD 5 mg once daily, day 1, plasma; mean ± SD; N = 9; read-out: AUC0-24

# SMILES STRING, AUC(0-t) [µg·h/mL]
rows = [
    ("CCc1nc(-c2ccc3c(c2)CC[C@H]3NC(=O)c2cnn(C)c2)no1", 0.325),
]

###

test: Plasma pharmacokinetics of aficamten and metabolites after single and multiple oral doses, phase 1 study; assay type: in vivo, human; conditions: human, oral; SAD 20 mg, plasma; median (minimum, maximum); read-out: tmax

# SMILES STRING, Tmax (min)
rows = [
    ("CCc1nc(-c2ccc3c(c2)CC[C@H]3NC(=O)c2cnn(C)c2)no1", 30),
]

###

experiment: Plasma pharmacokinetics of aficamten and metabolites after single and multiple oral doses, phase 1 study; assay type: in vivo, human; conditions: human, oral; MD 5 mg, day 1, plasma; median (minimum, maximum); read-out: tmax
READOUT: Tmax (min)

# MOLECULE, EXPERIMENTAL RESULT
rows = [
    ("CCc1nc(-c2ccc3c(c2)CC[C@H]3NC(=O)c2cnn(C)c2)no1 [aficamten]", 30),
]

###

Test: Plasma pharmacokinetics of aficamten and metabolites after single and multiple oral doses, phase 1 study
Format: in vivo, human
Conditions: human, plasma, oral, 5 mg, MD 5 mg once daily, day 14, plasma; mean ± SD; N = 9; read-out: AUC0-24
Procedure: This was a double-blind, randomized, placebo-controlled, phase 1 study including SAD and MD dose cohorts (Figure 1). […] The samples were determined using a validated ultra-performance liquid chromatography-tandem mass spectrometry (UPLC-MS/MS) method. […] In addition, the selectivity, matrix effect, extraction recovery, carryover, and stability at different conditions were also fully evaluated. […]
READOUT: AUC(0-t) (ng·h/mL)

# SMILES STRING, EXPERIMENTAL RESULT
data = [
    ("CCc1nc(-c2ccc3c(c2)CC[C@H]3NC(=O)c2cnn(C)c2)no1", 1360),
]

###

test: Plasma pharmacokinetics of aficamten and metabolites after single and multiple oral doses, phase 1 study; type: in vivo, human; conditions: human, plasma, oral; all cohorts; read-out: time of peak concentration (tmax day 1, tmax,ss day 14)
READOUT: Tmax

# COMPOUND, EXPERIMENTAL RESULT
data = [
    ("CCc1nc(-c2ccc3c(c2)CC[C@H]3NC(=O)c2cnn(C)c2)no1 [aficamten]", "30 to 45 min"),
]

###

test: Plasma pharmacokinetics of aficamten and metabolites after single and multiple oral doses, phase 1 study; format: in vivo, human; settings: human, plasma, oral, 5 mg, MD 5 mg, day 1, plasma; mean ± SD; read-out: Cmax

# SMILES STRING, Cmax
data = [
    ("CCc1nc(-c2ccc3c(c2)CC[C@H]3NC(=O)c2cnn(C)c2)no1", "72.6 ng/mL"),
]

###

assay: Plasma pharmacokinetics of aficamten and metabolites after single and multiple oral doses, phase 1 study; type: in vivo, human; settings: human, plasma, oral, 20 mg, SAD 20 mg, plasma; mean ± SD; read-out: AUC0-t
READOUT: AUC(0-t) (ng·h/mL)

# SMILES STRING, VALUE UNITS, EXPERIMENTAL RESULT
records = [
    ("CCc1nc(-c2ccc3c(c2)CC[C@H]3NC(=O)c2cnn(C)c2)no1", "ng·h/mL", 5290),
]

###

Assay: Plasma pharmacokinetics of aficamten and metabolites after single and multiple oral doses, phase 1 study
Type: in vivo, human
Details: human, plasma, po, single oral dose of 10 mg and 20 mg of aficamten, across both doses; read-out: t1/2 (arithmetic mean)
Experimental: This was a double-blind, randomized, placebo-controlled, phase 1 study including SAD and MD dose cohorts (Figure 1). […] The samples were determined using a validated ultra-performance liquid chromatography-tandem mass spectrometry (UPLC-MS/MS) method. […] In addition, the selectivity, matrix effect, extraction recovery, carryover, and stability at different conditions were also fully evaluated. […]

# SMILES STRING, half-life
measured = [
    ("CCc1nc(-c2ccc3c(c2)CC[C@H]3NC(=O)c2cnn(C)c2)no1", "74 to 77 h"),
]

###

experiment: Plasma pharmacokinetics of aficamten and metabolites after single and multiple oral doses, phase 1 study; assay type: in vivo, human; settings: human, plasma, oral, 5 mg, MD 5 mg, day 1, plasma; mean ± SD; read-out: t1/2 (converted)

# SMILES STRING, VALUE UNITS, half-life
records = [
    ("CCc1nc(-c2ccc3c(c2)CC[C@H]3NC(=O)c2cnn(C)c2)no1", "h", 38.6),
]

###

experiment: Plasma pharmacokinetics of aficamten and metabolites after single and multiple oral doses, phase 1 study; assay type: in vivo, human; conditions: human, plasma, po, across single oral dose 10 mg and 20 mg and 14 days QD 5 mg; read-out: mean half-life

# SMILES STRING, half-life
records = [
    ("CCc1nc(-c2ccc3c(c2)CC[C@H]3NC(=O)c2cnn(C)c2)no1", "74 to 77 h"),
]

Data origin, for the record: paper PMC10482267
